Target: T1, SARS-CoV-2 spike protein (SARS-CoV-2, UniProt P0DTC2 14-1208)
T1 construct: also called SARS-CoV-2 S protein; antigen of interest
Experiment: HT-SPR, Carterra LSA; mAb coupled to chip, antigen injected; 1:1 fit
Value kind: Kd (nM)
Numbers only, in nM.

# Kd of antibody 552 (antibody, V domains shown) VH: QVQLVQSGAEVKKPGSSVKVSCKASGGTFSSYGISWVRQAPGQGLEWMGRIIPILGIANYAQKFQGRVTITADKSTSTAYMELSSLRSEDTAVYYCARAVYAAGDDDYYYYYGMDVWGQGTTVTVSS VL: SYELTQPPSVSVSPGQTARITCSGDALPKQYAYWYQQKPGQAPVVVIYKDSDRPSGIPERFSGSSSGTTVTLTISGVQAEDEADYYCQSADSSGTYQVFGTGTKVSVL = 0.0393

The reported measurements were obtained from patent US20210292393A1.
